B1: ADAMTSL2 (parent)
chain: KKPPEESTCFERPCFKWYTSPWSE

Variants of: B1
protocolDescription: protein stability index of a GFP-peptide fusion (GPS, HEK-293T) (PSI 1-6); higher = more stable;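 also: lentivirally expressed fusions sorted by FACS into six bins by GFP to DsRed ratio, PSI derived from sequencing read proportions per bin multiplied by bin number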
experimentalConditions: c terminus: a fixed tail appended

[
  {
    "mutationId": "S20L",
    "protein stability index": 1.95
  },
  {
    "mutationId": "P13M",
    "protein stability index": 2.02
  },
  {
    "mutationId": "R12L",
    "protein stability index": 2.04
  },
  {
    "mutationId": "C14Y",
    "protein stability index": 2.02
  },
  {
    "mutationId": "T8F",
    "protein stability index": 1.74
  },
  {
    "mutationId": "P3M",
    "protein stability index": 2.29
  },
  {
    "mutationId": "E11R",
    "protein stability index": 1.75
  },
  {
    "mutationId": "P13N",
    "protein stability index": 2.32
  },
  {
    "mutationId": "K2N",
    "protein stability index": 2.94
  },
  {
    "mutationId": "P21V",
    "protein stability index": 2.33
  },
  {
    "mutationId": "W17V",
    "protein stability index": 2.52
  },
  {
    "mutationId": "E24S",
    "protein stability index": 2.07
  },
  {
    "mutationId": "T8W",
    "protein stability index": 1.7
  },
  {
    "mutationId": "K16G",
    "protein stability index": 1.67
  },
  {
    "mutationId": "S20F",
    "protein stability index": 2.02
  },
  {
    "mutationId": "R12Y",
    "protein stability index": 2.84
  },
  {
    "mutationId": "Y18W",
    "protein stability index": 2.57
  },
  {
    "mutationId": "K16Q",
    "protein stability index": 2.8
  },
  {
    "mutationId": "E5P",
    "protein stability index": 1.82
  },
  {
    "mutationId": "Y18A",
    "protein stability index": 2.87
  },
  {
    "mutationId": "E5H",
    "protein stability index": 2.09
  },
  {
    "mutationId": "S23Y",
    "protein stability index": 2.35
  },
  {
    "mutationId": "K1W",
    "protein stability index": 1.75
  },
  {
    "mutationId": "S7Q",
    "protein stability index": 2.58
  },
  {
    "mutationId": "F10T",
    "protein stability index": 3.19
  },
  {
    "mutationId": "E24K",
    "protein stability index": 1.82
  },
  {
    "mutationId": "S7P",
    "protein stability index": 2.21
  },
  {
    "mutationId": "F10E",
    "protein stability index": 2.9
  },
  {
    "mutationId": "S20C",
    "protein stability index": 1.99
  },
  {
    "mutationId": "C9E",
    "protein stability index": 3.33
  }
]
